Tested on: HEK-293T
Assay Explanation: Multiplex assay against HEK293T
Format: toxicity, cell-based
Conditions Used: human, 48 h, 1 µM, compound concentration 1 uM, replicate 2
Measurement Label: Population Membrane Permeable-Phenotype (%)
One number for each entry, in %.

Parameter requested: Population Membrane Permeable-Phenotype (%). Apply to each item below.
1. CN(c1cc(C(F)(F)F)nc(OCCC(=O)O)n1)c1cccc2c1CCC2
2. Cc1c(P(=S)(c2ccccc2)c2ccccc2)n2ccccc2[n+]1C/C=C/c1ccccc1.[Br-]
3. CC(Cc1ccc(O)c(O)c1)C(C)Cc1ccc(O)c(O)c1 (configuration not stated) [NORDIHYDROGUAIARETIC ACID]
4. N#Cc1cccc(C(=O)Nc2cc(-c3ccccc3)nn2-c2ccccc2)c1
5. C=CC(=O)Nc1cc(-n2c(=O)ccc3cnc4ccc(-c5ccc(NS(C)(=O)=O)cc5)cc4c32)ccc1C

[10, 4, 7, 15, 10]

Parameter requested: Population Membrane Permeable-Phenotype (%). Apply to each item below.
1. Oc1cccc(-c2nc(N3CCOCC3)c3oc4ncccc4c3n2)c1
2. CCCc1cc(C)[nH]c(=O)c1CNC(=O)c1cc(-c2ccc(N3CCN(C(C)C)CC3)nc2)cc2c1cnn2C(C)C
3. CS(=O)(=O)N1CCCC(NC(=O)[C@H](CCC2CCCCC2)NC(=O)c2ccc(CNC(=O)c3cnc4ccccn34)cc2)C1 (some centres not stated)
4. CC(C)c1cc(Nc2nc(N3CCC[C@H](N)C3)ncc2C(N)=O)cc(C(C)C)n1
5. CCCCN(CC)c1nc(C)nc2c1c(C)cn2-c1c(C)cc(C)cc1C.Cl
6. Cc1ccc(S(=O)(=O)NC2c3ccccc3Oc3ccccc32)cc1
7. C[C@@H](Oc1cc(-n2cnc3ccc(CN4CCN(C)CC4)cc32)sc1C(N)=O)c1ccccc1C(F)(F)F

1. 7
2. 1
3. 3
4. 3
5. 4
6. 11
7. 6

Parameter requested: Population Membrane Permeable-Phenotype (%). Apply to each item below.
1. N#CCNC(=O)c1ccc(-c2ccnc(Nc3ccc(N4CCOCC4)cc3)n2)cc1
2. CCCCCNC(=N)N/N=C/c1c[nH]c2ccc(OC)cc12.O=C(O)/C=C\C(=O)O [TEGASEROD MALEATE]
3. CC(/C=C1\SC(=S)N(CCCC(=O)Nc2ccc(C(=O)O)c(O)c2)C1=O)=C\c1ccccc1
4. CN1C(=O)[C@@H](NC(=O)c2cc3ccccc3[nH]2)N=C(c2ccccc2)c2ccccc21 [DEVAZEPIDE]

1: 13; 2: 5; 3: 9; 4: 7

// sample `Cl.NC[C@@H]1O[C@H](C23CC4CC(CC(C4)C2)C3)Cc2c1ccc(O)c2O` , its Population Membrane Permeable-Phenotype (%) was 23

* * *

Hi there, I'd appreciate the recorded Population Mitochondria Different-Phenotype (%) for every entry that follows.
Tested on: Fibroblast
Assay Explanation: Multiplex assay against human fibroblast
Type: toxicity, cell-based
Conditions Used: 24 h, 1 µM, compound concentration 1 uM, replicate 1
Give bare numbers, in %.

CC[C@@H]1C(=O)N(C)c2cnc(Nc3ccc(C(=O)NC4CCN(C)CC4)cc3OC)nc2N1C1CCCC1 [BI-2536] | 8

Parameter requested: Population Mitochondria Different-Phenotype (%). Apply to each item below.
1. CCOc1ccn(-c2ccc(F)cc2)c(=O)c1C(=O)Nc1ccc(Oc2ccnc(N)c2Cl)c(F)c1 [BMS-777607]
2. CC[C@H](Nc1ncnc2[nH]cnc12)c1nc2cccc(F)c2c(=O)n1-c1ccccc1 [IDELALISIB]
3. N#CCNC(=O)c1ccc(-c2ccnc(Nc3ccc(N4CCOCC4)cc3)n2)cc1 [MOMELOTINIB]
4. Cc1c(Nc2ccc(S(=O)(=O)N3CCN(C)CC3)cc2F)nc2ccc(-c3cnn(C4CC4)c3)cn2c1=O

1. 8
2. 5
3. 0
4. 2

Parameter requested: Population Mitochondria Different-Phenotype (%). Apply to each item below.
1. Cc1ccc(S(=O)(=O)NC2c3ccccc3Oc3ccccc32)cc1
2. Cl.Cn1c2c(c3ccc(Cl)c(Cl)c31)C(C#N)C1(CCNCC1)NC2=O (centres undefined)

10
3

Parameter requested: Population Mitochondria Different-Phenotype (%). Apply to each item below.
1. CCCc1cc(C)[nH]c(=O)c1CNC(=O)c1cc(-c2ccc(N3CCN(C(C)C)CC3)nc2)cc2c1cnn2C(C)C
2. C=CC(=O)Nc1cc(-n2c(=O)ccc3cnc4ccc(-c5ccc(NS(C)(=O)=O)cc5)cc4c32)ccc1C
3. CCCCCNC(=N)N/N=C/c1c[nH]c2ccc(OC)cc12.O=C(O)/C=C\C(=O)O [TEGASEROD MALEATE]
4. CC(C)[C@H](CO)Nc1nc(Nc2cccc(Cl)c2)c2ncn(C(C)C)c2n1 [PURVALANOLA]
5. C[C@@H](Oc1cc(-n2cnc3ccc(CN4CCN(C)CC4)cc32)sc1C(N)=O)c1ccccc1C(F)(F)F [GSK-461364]

1. 20
2. 16
3. 1
4. 7
5. 25

Parameter requested: Population Mitochondria Different-Phenotype (%). Apply to each item below.
1. Cl.NC[C@@H]1O[C@H](C23CC4CC(CC(C4)C2)C3)Cc2c1ccc(O)c2O
2. CCOC(=O)CCNc1cc(N2CCc3ccccc3CC2)nc(-c2ccccn2)n1
3. Cc1c(Nc2ccc(S(=O)(=O)N3CCN(C)CC3)cc2F)nc2ccc(Nc3cnn(C4CC4)c3)cn2c1=O
4. Cc1ccc(NC(=O)Nc2cc(C(F)(F)F)ccc2F)cc1Nc1ccc2c(c1)NC(=O)/C2=C\c1ccc[nH]1
5. Cc1c(P(=S)(c2ccccc2)c2ccccc2)n2ccccc2[n+]1C/C=C/c1ccccc1.[Br-]
6. CC(C)c1cc(Nc2nc(N3CCC[C@H](N)C3)ncc2C(N)=O)cc(C(C)C)n1

1. 0
2. 1
3. 1
4. 0
5. 40
6. 14

// sample `CCCCN(CC)c1nc(C)nc2c1c(C)cn2-c1c(C)cc(C)cc1C.Cl` , its Population Mitochondria Different-Phenotype (%) was 8
